- Test Details: Plasma incubations (human plasma stability)
- Assay type: in vitro ADME
- Condition Description: 25 μM, 37° C., percent remaining at 1 hour
For each entry below, report its Human Plasma Stability % rem. @ 1 h value.
Give bare numbers, in %.

For orientation, consider the following solved cases.
>>> meas_value("CN1CCN(c2ccc(C(=O)N[C@H](C(=O)N3CC(F)[C@H]4OCC(=O)[C@H]43)C3CCCCC3)cc2)CC1 (stereo in doubt)")
93.1
>>> meas_value("CC(C)C[C@H](NC(=O)c1ccc(-c2csc(N3CCN(C)CC3)n2)cc1)C(=O)N1C[C@@H](F)[C@H]2OCC(=O)[C@H]21")
70.2

Give Human Plasma Stability % rem. @ 1 h for all compounds that follow.
1. CC(C)C[C@H](NC(=O)c1ccc(N2CCN(C)CC2)cc1)C(=O)N1CC[C@H]2OCC(=O)[C@H]21
2. CN1CCN(c2ccc(C(=O)N[C@H](C(=O)N3CC[C@H]4OCC(=O)[C@H]43)C3CCCC3)cc2)CC1
3. CN1CCN(c2ccc(C(=O)N[C@H](C(=O)N3CC(Cl)[C@H]4OCC(=O)[C@H]43)C3CCCC3)cc2)CC1 (stereo in doubt)

95
97.2
97.4

###

- Test Details: Liver microsomal incubations (HLM)
- Type: in vitro ADME
- Condition Description: human liver microsomes 0.5 mg/mL, 25 μM, NADPH, percent remaining at 1 hour
Endpoint Label: HLM % rem. @ 1 hr (%)
Numbers only, in %.

For orientation, consider the following solved cases.
>>> meas_value("CC(C)C[C@H](NC(=O)c1ccc(N2CCN(C)CC2)cc1)C(=O)N1C[C@@H](F)[C@H]2OCC(=O)[C@H]21 [prior art compound 10]")
96.8
>>> meas_value("CN1CCN(c2nc(-c3ccc(C(=O)N[C@H](C(=O)N4CC[C@H]5OCC(=O)[C@H]54)C4CCCC4)cc3)cs2)CC1 [prior art compound 13]")
79.4
>>> meas_value("CN1CCN(c2ccc(C(=O)N[C@H](C(=O)N3CC(Cl)[C@H]4OCC(=O)[C@H]43)C3CCCC3)cc2)CC1 (stereo in doubt) [Example 5]")
85.6
>>> meas_value("CC(C)C[C@H](NC(=O)c1ccc(N2CCN(C)CC2)cc1)C(=O)N1CC[C@H]2OCC(=O)[C@H]21 [prior art compound 42]")
95

Moving on to another molecule below.
So what's the measured HLM % rem. @ 1 hr for this one? CN1CCN(c2nc(-c3ccc(C(=O)N[C@H](C(=O)N4C[C@@H](Cl)[C@H]5OCC(=O)[C@H]54)C4CCCC4)cc3)cs2)CC1 [Example 8]
54.1

###

- Measured Target: Human recombinant cathepsin K (Homo sapiens)
- Construct: purchased B. Turk, Josef, Stefan Institute, Ljubljana, Slovenia
- Test Details: In vitro cathepsin K Ki inhibition measurement
- Assay type: biochemical
- Condition Description: recombinant human cathepsin K; read-out: In vitro Ki (nM) vs Cath K
- Procedure: Stock solutions of substrate or inhibitor were made up to 10 mM in 100% dimethylsulfoxide (DMSO) (Rathbums, Glasgow, U.K.) and diluted as appropriately required. […] The equilibrium inhibition constants (Ki^ss) for each compound were measured under steady-state conditions monitoring enzyme activity as a function of inhibitor concentration. The values were calculated on the assumption of pure competitive behaviour (Cornish-Bowden, A. Fundamentals of enzyme kinetics Portland Press; 1995, 93-128.). […]
For each entry below, report its Ki value.
Answers are plain numbers, in nM.

>>> meas_value("CN1CCN(c2nc(-c3ccc(C(=O)N[C@H](C(=O)N4C[C@@H](F)[C@H]5OCC(=O)[C@H]54)C4CCCC4)cc3)cs2)CC1")
0.9

Give Ki for all compounds that follow.
1. CN1CCN(c2nc(-c3ccc(C(=O)N[C@H](C(=O)N4C[C@@H](Cl)[C@H]5OCC(=O)[C@H]54)C4CCCC4)cc3)cs2)CC1
2. CC(C)C[C@H](NC(=O)c1ccc(N2CCN(C)CC2)cc1)C(=O)N1C[C@@H](F)[C@H]2OCC(=O)[C@H]21
3. CC(C)C[C@H](NC(=O)c1ccc(N2CCN(C)CC2)cc1)C(=O)N1C[C@@H](Cl)[C@H]2OCC(=O)[C@H]21 [prior art compound 14]
4. CC(C)C[C@H](NC(=O)c1ccc(N2CCN(C)CC2)cc1)C(=O)N1C[C@@H](Cl)[C@H]2OCC(=O)[C@H]21 [prior art compound 15]
5. CN1CCN(c2ccc(C(=O)N[C@H](C(=O)N3CC(Cl)[C@H]4OCC(=O)[C@H]43)C3CCCC3)cc2)CC1 (stereo in doubt)
6. CC(C)C[C@H](NC(=O)c1ccc(-c2csc(N3CCN(C)CC3)n2)cc1)C(=O)N1C[C@@H](F)[C@H]2OCC(=O)[C@H]21
7. CN1CCN(c2ccc(C(=O)N[C@H](C(=O)N3C[C@H](F)[C@H]4OCC(=O)[C@H]43)C3CCCC3)cc2)CC1

[0.3, 3.6, 1.8, 3.7, 0.5, 1.5, 1.7]

Give Ki for all compounds that follow.
1. CN1CCN(c2ccc(C(=O)N[C@H](C(=O)N3CC[C@H]4OCC(=O)[C@H]43)C3CCCC3)cc2)CC1
2. CN1CCN(c2ccc(C(=O)N[C@H](C(=O)N3CC(F)[C@H]4OCC(=O)[C@H]43)C3CCCCC3)cc2)CC1 (stereo in doubt)

[1.8, 14.9]

###

- Measured Target: Human recombinant cathepsin K (Homo sapiens, UniProt P43235)
- Construct: purchased B. Turk, Josef, Stefan Institute, Ljubljana, Slovenia
- Sequence (P43235 115-329): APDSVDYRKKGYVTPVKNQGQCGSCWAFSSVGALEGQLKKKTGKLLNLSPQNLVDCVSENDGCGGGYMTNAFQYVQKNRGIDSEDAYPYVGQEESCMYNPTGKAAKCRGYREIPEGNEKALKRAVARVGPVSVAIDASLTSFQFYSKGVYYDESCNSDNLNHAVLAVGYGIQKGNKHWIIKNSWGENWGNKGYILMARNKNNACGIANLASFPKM
- Test Details: In vitro cathepsin K Ki inhibition measurement
- Type: biochemical
- Condition Description: compared to prior art compound 42
For each entry below, report its improvement in in vitro potency against recombinant human cathepsin K value.
Numbers only, in fold.

>>> meas_value("CN1CCN(c2ccc(C(=O)N[C@H](C(=O)N3CC[C@H]4OCC(=O)[C@H]43)C3CCCC3)cc2)CC1 [prior art compound 12]")
5
>>> meas_value("CN1CCN(c2ccc(C(=O)N[C@H](C(=O)N3C[C@H](F)[C@H]4OCC(=O)[C@H]43)C3CCCC3)cc2)CC1 [Example 1]")
5
>>> meas_value("CC(C)C[C@H](NC(=O)c1ccc(N2CCN(C)CC2)cc1)C(=O)N1C[C@@H](F)[C@H]2OCC(=O)[C@H]21 [prior art compound 10]")
2.4

So what's the measured improvement in in vitro potency against recombinant human cathepsin K for this one? CN1CCN(c2ccc(C(=O)N[C@H](C(=O)N3CC(Cl)[C@H]4OCC(=O)[C@H]43)C3CCCC3)cc2)CC1 (stereo in doubt) [Example 5]
17

###

For each entry below, report its RLM % rem. @ 1 hr value.
- Test Details: Liver microsomal incubations (RLM)
- Type: in vitro ADME
- Condition Description: rat liver microsomes 0.5 mg/mL, 25 μM, NADPH, percent remaining at 1 hour
Numbers only, in %.

Give RLM % rem. @ 1 hr for all compounds that follow.
1. CN1CCN(c2ccc(C(=O)N[C@H](C(=O)N3CC(F)[C@H]4OCC(=O)[C@H]43)C3CCCCC3)cc2)CC1 (stereo in doubt)
2. CC(C)C[C@H](NC(=O)c1ccc(N2CCN(C)CC2)cc1)C(=O)N1CC[C@H]2OCC(=O)[C@H]21
3. CN1CCN(c2nc(-c3ccc(C(=O)N[C@H](C(=O)N4C[C@@H](Cl)[C@H]5OCC(=O)[C@H]54)C4CCCC4)cc3)cs2)CC1
4. CN1CCN(c2nc(-c3ccc(C(=O)N[C@H](C(=O)N4CC[C@H]5OCC(=O)[C@H]54)C4CCCC4)cc3)cs2)CC1
5. CC(C)C[C@H](NC(=O)c1ccc(N2CCN(C)CC2)cc1)C(=O)N1C[C@@H](F)[C@H]2OCC(=O)[C@H]21
6. CC(C)C[C@H](NC(=O)c1ccc(-c2csc(N3CCN(C)CC3)n2)cc1)C(=O)N1CC[C@H]2OCC(=O)[C@H]21

73.3
76.6
7.7
4.3
93.6
4.8

###

- Test Details: Plasma incubations (human plasma stability)
- Format: in vitro ADME
- Condition Description: 25 μM, 37° C., percent remaining at 1 hour
For each entry below, report its Human Plasma Stability % rem. @ 1 h value.
Write the numeric value and append its unit.

>>> meas_value("CC(C)C[C@H](NC(=O)c1ccc(-c2csc(N3CCN(C)CC3)n2)cc1)C(=O)N1CC[C@H]2OCC(=O)[C@H]21 [prior art compound 11]")
"92.6%"
>>> meas_value("CN1CCN(c2nc(-c3ccc(C(=O)N[C@H](C(=O)N4CC[C@H]5OCC(=O)[C@H]54)C4CCCC4)cc3)cs2)CC1 [prior art compound 13]")
"82.5%"

Give Human Plasma Stability % rem. @ 1 h for all compounds that follow.
1. CN1CCN(c2nc(-c3ccc(C(=O)N[C@H](C(=O)N4C[C@@H](Cl)[C@H]5OCC(=O)[C@H]54)C4CCCC4)cc3)cs2)CC1 [Example 8]
2. CN1CCN(c2nc(-c3ccc(C(=O)N[C@H](C(=O)N4C[C@@H](F)[C@H]5OCC(=O)[C@H]54)C4CCCC4)cc3)cs2)CC1 [Example 7]

1: 96%; 2: 96.3%

Give Human Plasma Stability % rem. @ 1 h for all compounds that follow.
1. CC(C)C[C@H](NC(=O)c1ccc(N2CCN(C)CC2)cc1)C(=O)N1C[C@@H](F)[C@H]2OCC(=O)[C@H]21 [prior art compound 10]
2. CN1CCN(c2ccc(C(=O)N[C@H](C(=O)N3C[C@H](F)[C@H]4OCC(=O)[C@H]43)C3CCCC3)cc2)CC1 [Example 1]

1: 100%; 2: 96.4%
